- assay-target: T1, Cynomolgus Monkey VSIG4-L-His (cynomolgus monkey)
- T1 construct: ECD with His tag; also called cyVSIG4-L; cyno VSIG4-L-His
- T1 chain: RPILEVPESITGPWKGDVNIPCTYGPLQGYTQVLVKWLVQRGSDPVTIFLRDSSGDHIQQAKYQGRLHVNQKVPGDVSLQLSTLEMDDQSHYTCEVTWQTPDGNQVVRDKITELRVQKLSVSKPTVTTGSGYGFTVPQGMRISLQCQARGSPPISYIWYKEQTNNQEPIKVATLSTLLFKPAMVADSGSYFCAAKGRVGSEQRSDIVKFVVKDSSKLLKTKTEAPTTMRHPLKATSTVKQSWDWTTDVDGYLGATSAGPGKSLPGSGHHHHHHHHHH
- protocol-details: BLI (Octet), IgG on AHC sensor, antigen 100 nM
measured-property: pKd
Keep in mind that pKd stands for -log10 of concentration in molar terms.

The reported value for 12A12 mouse/human chimeric IgG4 (S228P) kappa (antibody, V domains shown) VH: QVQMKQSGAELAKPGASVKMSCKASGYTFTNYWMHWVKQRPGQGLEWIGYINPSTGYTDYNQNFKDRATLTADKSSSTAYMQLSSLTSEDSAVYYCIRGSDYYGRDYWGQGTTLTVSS VL: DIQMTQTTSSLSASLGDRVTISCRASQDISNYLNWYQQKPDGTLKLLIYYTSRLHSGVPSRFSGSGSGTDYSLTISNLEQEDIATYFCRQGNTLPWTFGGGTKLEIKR in terms of pKd is 7.71
